Test system: KM12 colon
Assay: NCI tumour cell line growth inhibition, 48 h
measured_parameter: TGI

# annotated cases, reported TGI shown
compound: CCOC(=O)c1nc2ccc(C(F)(F)F)cc2nc1Nc1ccc(F)cc1
TGI: > 100 µM
//
compound: Cc1ccc(OCC2=NC3S/C(=C/c4ccc([N+](=O)[O-])o4)C(=O)N3N2)cc1 (configuration not stated)
TGI: 32 µM
//
compound: COc1cc(COC(=O)N2CC=CC2C(=O)O)c([N+](=O)[O-])cc1OC (configuration not stated)
TGI: > 100 µM
//
compound: Cc1nc(-n2nc(-c3ccccc3)cc2-c2ccccc2)sc1C(=O)/C=C/c1ccc(Cl)c(Cl)c1
TGI: 20.8 µM
//
compound: C=C1C(=O)O[C@H]2C/C(C)=C/CC[C@]3(C)CCC[C@](C)(CC[C@@H]12)O3
TGI: 17.4 µM
//
compound: CC[C@]1(O)CC2CN(CCc3c([nH]c4ccccc34)[C@@](C(=O)OC)(c3cc4c(cc3OC)N(C=O)[C@H]3[C@@](O)(C(=O)OC)[C@H](OC(C)=O)[C@]5(CC)C=CCN6CC[C@]43[C@@H]65)C2)C1 (some centres not stated)
TGI: > 50 µM
//
compound: O=C1/C(=C/c2[nH]ncc2-c2ccc(Cl)cc2)C(=O)N(c2ccccc2)C1c1ccccc1 (configuration not stated)
TGI: 79.5 µM
//
compound: C[C@H](CS)C(=O)N1c2ccccc2C[C@H]1C(=O)O
TGI: > 100 µM

For each of the compounds below, note its TGI.
1. O=Cc1c(-c2ccccc2)[nH]c2ccccc2c1=O
2. CCOC(=O)/C(C#N)=C1\SS/C(=C(/C#N)C(=O)OCC)S1
3. Cc1ccc(NC(=O)Nc2c(Cl)cccc2Cl)cn1
4. CC(=O)Oc1c(OC(C)C)c(C)c(O[Si](C(C)C)(C(C)C)C(C)C)c2[nH]c3ccccc3c12
5. CC(C)CC(NP(=O)(O)OC1OC(C)C(O)C(O)C1O)C(=O)NC(Cc1c[nH]c2ccccc12)C(=O)O (configuration not stated)
6. C(=Nc1cnc2ccccc2c1)c1ccc2ccccc2n1
7. O=C(O)C(O)C(O)C(O)C(O)C(=O)O (configuration not stated)
8. COc1cccc(/C=N/[N-]C(N)=O)c1[O-].[Ni+2].[OH3+]

1. > 100 µM
2. 41.3 µM
3. > 100 µM
4. > 100 µM
5. > 100 µM
6. > 100 µM
7. > 100 µM
8. 0.91 µM

For each of the compounds below, note its TGI.
1. C/C(=N/O)c1ccc2c(c1)/C(=N/O)c1ccccc1-2
2. O=C(CC(c1ccccc1)C1C(=O)NC(=S)NC1=O)c1ccc([N+](=O)[O-])cc1 (configuration not stated)
3. COc1cc(C2SCC(=O)N2c2ccc(NC(C)=O)cc2)cc(OC)c1OC (configuration not stated)

1: 35.4 µM; 2: > 100 µM; 3: > 100 µM

For each of the compounds below, note its TGI.
1. O=CNc1ccc(S(=O)(=O)c2ccc(NC=O)cc2)cc1
2. CN1N=C(c2ccccc2)C(C(c2ccccc2[N+](=O)[O-])C2C(=O)N(C)N=C2c2ccccc2)C1=O (configuration not stated)
3. O=C(Cn1c(=O)oc2ccc(C(=O)c3ccc(F)cc3)cc21)c1ccccc1

["> 100 µM", "> 100 µM", "> 100 µM"]

For each of the compounds below, note its TGI.
1. Cc1cc(S(=O)(=O)Nc2n[nH]c(Nc3ccc4ccccc4c3)n2)c(S)cc1Cl
2. CCc1[nH]c(=O)c2oc3cc4ccccc4cc3c2c1C(=O)O
3. COc1cc(C2C(C(=O)Nc3ccc([N+](=O)[O-])cc3)=C(C)NC(C)=C2C(=O)Nc2ccc([N+](=O)[O-])cc2)ccc1O
4. CC(=O)Nc1ccc(/C=C2\N=C(c3ccccc3)OC2=O)cc1

95 µM
> 10 µM
39 µM
> 100 µM

Write down TGI measured for item C[C@@H](NC(=O)c1ncnc(N)c1Cl)c1ncc(C(=O)Nc2cc(C(F)(F)F)c(Cl)cn2)s1 > 84.6 µM

---

Tested on: A498 renal
Assay: NCI tumour cell line growth inhibition, 48 h
measured_parameter: TGI

# annotated cases, reported TGI shown
compound: OCCCSCCO
recorded_value: > 100 µM
//
compound: C(=Nc1cnc2ccccc2c1)c1ccc2ccccc2n1
recorded_value: > 100 µM
//
compound: CC(C)(C)NC(=O)[C@H]1CC[C@H]2[C@@H]3CC[C@H]4NC(=O)C=C[C@]4(C)[C@H]3CC[C@]12C
recorded_value: > 100 µM
//
compound: NC1=NC(=O)/C(=C/c2ccc3ncccc3c2)S1
recorded_value: > 25 µM

Attention now shifts to the item below.
Write down TGI measured for item Cn1c2[n+](c3nc(N)[nH]c(=O)c31)C1OC(C2)C(O)C1O (stereo not given) > 100 µM

---

Tested on: SK-MEL-5 melanoma
Assay: NCI tumour cell line growth inhibition, 48 h
measured_parameter: TGI

compound: CCOC(=O)c1sc2c(c1O)c(=O)n(-c1ccccc1)c(=S)n2-c1ccccc1
recorded_value: > 100 µM

For each of the compounds below, note its TGI.
1. COc1ccc(Cl)cc1Nc1nc(C(F)(F)F)ccc1C(=O)N/N=C/c1cccnc1
2. OCc1ccc(N2CCc3cc(F)ccc3C2)cc1Cl

1. 65.3 µM
2. 20.4 µM

For each of the compounds below, note its TGI.
1. Cc1nc(N)c(-c2ccccc2)s1
2. CC(C)CCC[C@@H](C)C1CCC2[C@@H]3CCC4C[C@@H](NS(C)(=O)=O)CC[C@]4(C)C3CC[C@@]21C (stereo partly specified)
3. C#CCNC(=O)NCCCCC(NC(C)=O)C(=O)NCc1ccccc1 (stereo unspecified)

> 100 µM
> 100 µM
> 100 µM

---

System: NCI-H460 lung
Field: GI50. Provide a value for each of the compounds that follow.

For each of the compounds below, note its GI50.
1. O=C(Nc1ccccc1C(F)(F)F)c1ccc(NC2=C(Cl)C(=O)N(Cc3ccccc3)C2=O)cc1
2. COc1ccc(-c2[nH]nc(N)c2-c2cc(OC)c3c(c2)OCO3)cc1

["33.2 µM", "3.38 µM"]

Write down GI50 measured for item CN1CCN(c2ccc(NC(=O)c3cncnc3Nc3ccc(OCc4cccc(F)c4)c(Cl)c3)cc2)CC1 1.14 µM

---

Field: TGI. Provide a value for each of the compounds that follow.
System: DU-145 prostate
Assay: NCI tumour cell line growth inhibition, 48 h

# annotated cases, reported TGI shown
structure_as_smiles: CCN1CCN(c2nc3ccccc3nc2C(=O)c2ccc(OC)c(OC)c2)CC1
TGI: > 100 µM

structure_as_smiles: C/C(=N/O)c1ccc2c(c1)/C(=N/O)c1ccccc1-2
TGI: 71 µM

Write down TGI measured for item Nc1nnnc2nc[nH]c12 > 100 µM

---

Tested on: HOP-92 NSCLC
Assay: NCI tumour cell line growth inhibition, 48 h
Field: TGI. Provide a value for each of the compounds that follow.
Numbers only, in µM.

# annotated cases, reported TGI shown
compound: O=C1c2ccccc2C(=O)c2c1ccc1c(=O)n(-c3ccccc3C(F)(F)F)nnc21
tested_target: HOP-92 NSCLC
recorded_value: 5.94

compound: O=C(Nc1ccccc1C(F)(F)F)c1ccc(NC2=C(Cl)C(=O)N(Cc3ccccc3)C2=O)cc1
tested_target: HOP-92 NSCLC
recorded_value: 35.2

compound: Cc1n[n+]([O-])c(C)cc1[N+](=O)[O-]
tested_target: HOP-92 NSCLC
recorded_value: 34.3

For each of the compounds below, note its TGI.
1. COc1ccc(-c2[nH]nc(N)c2-c2cc(OC)c3c(c2)OCO3)cc1
2. COC(=O)C1(C)CC2C(C)(CCC3(C)C4=CC=C5C(=CC(=O)C(O)=C5C)C4(C)CCC23C)CC1O (stereo not drawn)
3. COc1cc(C2c3cc4c(cc3OC(NCCc3ccccc3)C2C)OCO4)cc(OC)c1OC (stereo not drawn)
4. O=c1cc(NNc2ccccc2F)[nH]c(=O)[nH]1
5. C[C@@H]1CCC2C(C)(C)C(/C=C\C=O)C3(C)OC213 (stereo partly drawn)
6. CN(C)C=NC1CCC(C(C)(C)C)CC1 (stereo not drawn)

1: 46.8; 2: 2.82; 3: 63.3; 4: 29.2; 5: 93.9; 6: 34.6

For each of the compounds below, note its TGI.
1. O=C1c2cccnc2C(=O)c2c1c(C(=O)NCCn1ccnc1)c1ccccn21
2. NC(=O)CC1(O)C=C(Br)C(=O)C(Br)=C1
3. CC(C)[Si]1(C(C)C)OCC2OC(n3c(C(=O)c4ccccc4)cc(=O)[nH]c3=O)CC2O[Si](C(C)C)(C(C)C)O1 (stereo not drawn)
4. O=c1c2ccccc2nc(-c2ccccc2Cl)n1-c1nnc(C(F)(F)F)s1
5. O=C1/C(=C/c2[nH]ncc2-c2ccc(Cl)cc2)C(=O)N(c2ccccc2)C1c1ccccc1 (stereo not drawn)
6. COc1cc(/C=C/C(=O)/C=C/c2cc3ccc(Cl)cc3n(Cc3ccccc3)c2=O)ccc1O

31.7
4.26
7.14
3.43
76
5.44

# credit: PubChem BioAssay (NCI)
